Each recorded value in this set is attributed to ChEMBL document CHEMBL1144180.

# procedureText: Inhibition of alpha-glucosidase at 5.0 ug/ml
The reader will find reported inhibition values listed item by item below.
Give a bare numeral; the unit % is implied.

# compound, inhibition, %
data = [
    ("COc1ccc([C@H](O)CNC(=O)/C=C/c2ccccc2)cc1", 20.9),
]

Bench note: what inhibition did COc1ccc(/C=C/NC(=O)/C=C/c2ccccc2)cc1 [ANHYDROAEGELINE] show?
25.2

Bench note: what inhibition did CC(C)=CCOc1ccc(CCNC(=O)/C=C/c2ccccc2)cc1 show?
15.9

Bench note: what inhibition did COc1ccc([C@@H](CNC(=O)/C=C\c2ccccc2)O[C@@H]2O[C@H](CO)[C@@H](O)[C@H](O)[C@H]2O)cc1 show?
3.4

Bench note: what inhibition did COc1ccc([C@@H](CNC(=O)/C=C/c2ccccc2)O[C@@H]2O[C@H](CO)[C@@H](O)[C@H](O)[C@H]2O)cc1 show?
11.6

Bench note: what inhibition did COc1ccc([C@H](O)CNC(=O)c2ccccc2)cc1 show?
11.4

Bench note: what inhibition did CC(C)=CCOc1ccc(/C=C/NC(=O)/C=C/c2ccccc2)cc1 show?
13.2
